# Tested on: OVCAR-3 ovarian
# Assay method text: NCI-60 one-dose screen, 48 h (100 = growth as untreated, 0 = no growth, -100 = all killed)
# Details: 10 µM unless noted
The panel holds about 83,000 compounds, 20% with a hit somewhere; the sample as a whole holds those more often. Activity calls are given as the source filed them. How the source made its calls: active means growth percent below 10; inactive means the rest.
Parameter: growth

Solved cases (3 shown):
molecule=Cc1nc2ccccc2c(/C=C/c2ccc(Cl)cc2)c1C(=O)/C=C/c1ccc(C(F)(F)F)cc1 parameter=growth value_observed="-85.8% (active)"
molecule=O=c1c2cccc(F)c2sc2c(NCCCNCCO)nc3ccccc3c12 parameter=growth value_observed="30.1% (inactive)"
molecule=O=C(N/N=C/c1ccc(Cl)cc1)c1ccc(C(F)(F)F)nc1Nc1cccc(C(F)(F)F)c1 parameter=growth value_observed="-45.2% (active)"

query: Fill in the blank: the reported growth of O=C1c2cccc3cccc(c23)C(=O)N1N1C(=O)c2cccc3c(NC4CCCCC4)ccc(c23)C1=O is ____.
result: 105% (inactive)

query: Recorded growth for O=c1c2cc(F)ccc2sc2c(NCCCNCCO)nc3ccc(F)cc3c12 , please?
result: 30.4% (inactive)

query: // query growth value for entry CSc1nc2ccc(C)cc2cc1/C=N/O
result: 106% (inactive)

* * *

# Tested on: OVCAR-5 ovarian
# Assay method text: NCI-60 one-dose screen, 48 h (100 = growth as untreated, 0 = no growth, -100 = all killed)
# Details: 10 µM unless noted
Compounds without any hit were thinned out: in the full panel of roughly 83,000, 20% have a hit.
Parameter: growth (%)
Record the value in %, omitting the unit from your answer.

query: Field: growth (OVCAR-5 ovarian). Entry: CNCCCNc1nc2ccccc2c2c(=O)c3cc(OC)ccc3sc12
result: 92.2

query: Query for OVCAR-5 ovarian: what growth does the record show for COC(=O)[C@H](C)NC(=O)NC(=O)NC(=O)CI ?
result: 108

query: Lab request: please report growth under test system OVCAR-5 ovarian for CCCCn1c(-c2ccc(C(=O)O/N=C(\N)c3ccc(OC)cc3)cc2)nc(-c2ccccc2)c1-c1ccccc1
result: 24.1

* * *

Listing of recorded growth by entry.
# Test system: OVCAR-3 ovarian
# Assay method text: NCI-60 one-dose screen, 48 h (100 = growth as untreated, 0 = no growth, -100 = all killed)
# Details: 10 µM unless noted
About 83,000 compounds went through this panel and 20% of them were active in at least one assay; those are over-represented in the sample as a whole.
# value in %; strip the unit string

Worked examples, 10 compounds total:
compound=O=C(O)CCC/C=C\C[C@H]1C=CC(=O)/C1=C/C[C@@H](O)CCc1cccc(C(F)(F)F)c1 parameter=growth value_observed=-36.1
compound=Nc1nc2ccccc2c2c(=O)c3cc(F)ccc3sc12 parameter=growth value_observed=113
compound=O=c1[nH]c2c(ccc3cnccc32)c2c1CCC2 parameter=growth value_observed=-27
compound=O=c1c2cc(F)ccc2sc2c(NCCO)nc3ccccc3c12 parameter=growth value_observed=121
compound=O=c1c2cc(F)ccc2sc2c(NCCCNCCO)nc3ccccc3c12 parameter=growth value_observed=-14.6
compound=Fc1cc2c(cc1Cl)N(c1ncnc3ccc(-c4cnc5cnccn45)cc13)CC2 parameter=growth value_observed=87.4
compound="Cc1cccc2c3c(sc12)C(c1ccc(Cl)cc1)C(C#N)=C(N)O3 (stereo not given)" parameter=growth value_observed=-17.3
compound=CCCCNc1nc(NN2C(=O)c3cccc4cccc(c34)C2=O)nc(-n2cnc3ccccc32)n1 parameter=growth value_observed=86.3
compound=CN1CCN(CC(=O)N2c3cccc4cccc(c34)N(C(=O)CN3CCN(C)CC3)C2c2cn(-c3ccccc3)nc2-c2cccc([N+](=O)[O-])c2)CC1 parameter=growth value_observed=-57.6
compound=C[N+]1=C(/C=C/c2ccc(O)c3ncccc23)C(C)(C)c2ccccc21 parameter=growth value_observed=83

query: Quick check: growth of CC(=O)Oc1ccccc1C(=O)N=C1[Se]CCCN1C(=O)c1ccccc1OC(C)=O ?
result: 7.64

query: Entry under review: CC1CN(C2CCCCC2)C(=S)N(c2ccccc2)C1=O (stereo not given) . Reported growth?
result: 112

query: Requested read-out: growth. Entry: Cc1ccc(-c2nc3c(c(-c4ccccc4)nn3-c3ccccc3)c(-c3ccc(O)cc3)c2C#N)cc1
result: 64.5

query: Suppose we examine the compound Cc1cccc(NCc2cn(-c3ccc(C(=O)O)cc3)nc2-c2ccc(C(=O)O)cc2)n1 ; what growth value has been reported?
result: 106

query: So what does the record say about growth for OC(c1ccccc1)C(NC(Cc1ccccc1)c1ccccc1)c1ccccc1 (stereo not given) ?
result: 96.9

query: Item O=C(CCN1C(=O)/C(=C/c2ccc(O)cc2)SC1=S)Nc1ccccc1 has what recorded growth?
result: 108

query: // returns reported growth for input CC1=C([Se]CC(OC(=O)[C@@H](CSSC(C)(C)C)NC(=O)OC(C)(C)C)C(=O)NC(C)(C)C)C(=O)c2ccccc2C1=O (stereo not given in full)
result: -99.2

query: Which growth reading was recorded for the compound S=c1nc(-c2ccccc2)oc(=NC2CCCCC2)n1C1CCCCC1 ?
result: 11.8

query: Dear colleague, I am looking for the recorded growth of the following compound: O=C(N=c1oc2ccccc2cc1-c1cc2ccccc2[nH]1)Nc1ccc(Cl)cc1
result: 103

query: Please look up its growth: O=C(COc1ccc(/C=C2\Cc3ccc(Cl)cc3C2=O)cc1)Nc1nc2ccccc2s1
result: 104

* * *

# System: PC-3 prostate
# Assay method text: NCI-60 one-dose screen, 48 h
# Details: 10 µM unless noted
The panel holds about 83,000 compounds, 20% with a hit somewhere; the sample as a whole holds those more often. The source made the active and inactive calls. Rule for the calls: active = growth percent below 10; inactive = the rest.
The reply should be one of these categories: active, inactive

Examples from the recorded data:
compound=CCCCn1c(=O)c(-c2cc(-c3ccc(Cl)cc3)nc(-c3ccc(Cl)cc3)c2)cc2cc(Cl)ccc21 cat=inactive
compound="C/C=C(\\C)C(=O)N[C@H]1[C@@H](OC(C)=O)C[C@]2(C)C3CC[C@@]4(C)C(CC[C@@H]4C(C)N(C)C)C3CCC2[C@H]1O (some centres undefined)" cat=inactive
compound=COC(=O)c1ccc2[nH]c(O)c(C(=Nc3ccc(N(C)C(=O)CN4CCN(C)CC4)cc3)c3ccccc3)c2c1 cat=inactive

query: I'd appreciate the recorded outcome for COc1cc(CCCO)c(OC)c(OC)c1OC from this test.
result: inactive

query: Answer briefly: the call reported for Cc1cccc2c(=O)c3c(sc12)c(NCc1ccccc1)nc1ccccc13 in this assay.
result: inactive

query: Per the records of this test, what outcome belongs to CCn1cnc2c1c(=O)[nH]c(=O)n2CC1CCC(CNS(=O)(=O)c2ccc(OC3CCOCC3)c(F)c2)CC1 (centres undefined) ?
result: inactive

query: Please share the test call associated with O=C(O)c1cn(C2CC2)c2cc(N3CCN(C(=O)Nc4nc(-c5ccccc5)cs4)CC3)c(F)cc2c1=O .
result: inactive

query: Entry O=C(O)CCC/C=C\C[C@H]1C=CC(=O)/C1=C/C[C@@H](O)CCc1cccc(C(F)(F)F)c1 : call = ?
result: active

query: Just curious, what result did CN(C)c1ccc(/C=N\Nc2cc(=O)[nH]c3ccc(Cl)cc23)cc1 get here?
result: inactive

* * *

# Tested on: NCI-H460 lung
# Assay method text: NCI-60 one-dose screen, 48 h (100 = growth as untreated, 0 = no growth, -100 = all killed)
# Details: 10 µM unless noted
This is part of a sample that, as a whole, favours compounds with a hit. Of some 83,000 tested, about 20% had one in any assay.
# label = 1.0 if growth < 30% else 0.0

query: Just wondering, is growth of COc1cccc(-c2nc(-c3ccc(NS(=O)(=O)c4ccccc4)cc3)[nH]c2-c2ccnc(Br)c2)c1 below 30%?
result: 1.0

query: In the record for O=C(CS(=O)c1oc(-c2cccs2)nc1S(=O)(=O)c1ccc(Br)cc1)c1ccccc1 (centres undefined) , is growth less than 30%?
result: 0.0

query: Is growth of C=C1C(=O)O[C@H]2[C@H]1CC/C(COC(=O)CSCC(=O)OC/C1=C/CC[C@@]3(C)O[C@H]3[C@H]3OC(=O)C(=C)[C@@H]3CC1)=C\CC[C@@]1(C)O[C@@H]21 strictly below 30%?
result: 0.0

query: hey, is growth for CCOC(=O)Nc1ccc(-c2nc(-c3cccc(OC)c3)c(-c3ccnc(Br)c3)[nH]2)cc1 lower than 30% or not?
result: 1.0

query: Say whether its growth is strictly beneath 30%. Entry: CC1=C(C)C(=O)C(Nc2cccc(C(=O)OC(C)(C)C)c2)=C(Br)C1=O
result: 0.0

query: Hello, I'm reviewing records and need to know if growth of COc1nc2ccc(C)cc2cc1-c1nc2c(cnn2-c2ccc(Br)cc2)c(=O)[nH]1 is below 30%. Could you check?
result: 1.0

query: Does this compound meet the criterion growth < 30%? O=c1n(Cc2ccc3ccccc3c2)ccn1Cc1ccc2ccccc2c1
result: 0.0

query: Criterion: growth strictly below 30%. Is it met by CCOC(=O)Nc1ccc(C(=O)/C=C/c2ccccc2)cc1 ?
result: 0.0

query: Lab note: confirm whether the reported growth for this compound is below 30%, equality not counting. compound: Cc1ccc(/C=N\NC(=O)c2[nH]c3ccc(F)cc3c2-c2ccccc2)cc1
result: 1.0
